Items are presented alongside their recorded composite z-score.
# Test system: XIP peptide (Xip251-270) binding
# assay-details: small-molecule binders of XIP peptide, primary screen, biochemical, small-molecule microarray, fluorescence 635/667 nm, 0.1 µg/mL protein (AID 1182)
# assay-context: fluorescent protein binding, 635 nm, higher = more signal, called active from +8 up or from −8 down
A bare number is all that is needed in reply.

>  <compound>
Cc1ccc2[nH]c3nc(CCCn4ccnc4-c4ccccc4)nnc3c2c1

>  <measured-target>
XIP peptide (Xip251-270) binding

>  <composite z-score>
-0.0582

$$$$
>  <compound>
C[C@@H](c1ccccc1)N1C(=O)[C@H]2[C@H]3[C@H](O)[C@H](O)CC(=NNC(=O)OCc4ccccc4)[C@@H]3CC[C@H]2C1=O

>  <measured-target>
XIP peptide (Xip251-270) binding

>  <composite z-score>
0.101

$$$$
>  <compound>
CC(C)=CCCC(C)=CCON=C1C[C@@H](O)[C@@H](O)[C@@H]2[C@@H]3C(=O)N(C4CCCCC4)C(=O)[C@@H]3CC[C@H]12

>  <measured-target>
XIP peptide (Xip251-270) binding

>  <composite z-score>
1.45

$$$$
>  <compound>
CCOC(=O)CCN1C(=O)[C@H]2[C@H]3[C@H](O)[C@H](O)CC(=NNC(=O)OCc4ccc(OC)cc4)[C@H]3CC[C@H]2C1=O

>  <measured-target>
XIP peptide (Xip251-270) binding

>  <composite z-score>
0.353

$$$$
>  <compound>
CSCC[C@@H]1NC(=O)CC=C[C@@H](C)COC(=O)[C@H](C)COC1=O

>  <measured-target>
XIP peptide (Xip251-270) binding

>  <composite z-score>
0.439

$$$$

# compound CCN1C(=O)[C@H]2[C@H]3[C@H](O)[C@H](O)CC(=NOC(C)CN4CCCc5nc(C)c(C)cc54)[C@@H]3CC[C@H]2C1=O (some centres not stated) ; its composite z-score = 0.302

# compound CCCNC(=O)OC[C@H]1O[C@H](CCON=C2c3cc(OC)ccc3O[C@H](c3cccc(OC)c3)[C@H]2O)C=C[C@@H]1Oc1ccc(OC)cc1 ; its composite z-score = 0.328

----------
Items are presented alongside their recorded z-score.
# assay-details: E. coli acrAB mutant growth effects, primary screen, E. coli filamentation inducers, strain DRC39, OD650, 48 h (AID 1179);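 also: screen aims at cell division blockers that make cells filament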
# assay-context: E. coli DRC39 delta-acrAB growth, higher = more signal, called active from +8 up or from −8 down
A bare number is all that is needed in reply.

>  <smiles-data>
C#CCCCON=C1C[C@@H](O)[C@@H](O)[C@@H]2[C@@H]3C(=O)N(CC)C(=O)[C@@H]3CC[C@H]12

>  <z-score>
-0.241

$$$$
>  <smiles-data>
CC(=O)OC[C@H]1O[C@H](CCON=C(C)C)C=C[C@@H]1OC(C)=O

>  <z-score>
-0.844

$$$$
>  <smiles-data>
CO[C@@H]1C=CCC(=O)N[C@@H](C)C(=O)OC[C@@H](OC)[C@H](C)C=CCC(=O)OC[C@H]1C

>  <z-score>
-0.42

$$$$

# compound CC(=O)OC[C@H]1O[C@H](CC=NO[C@@H](C)c2cc(-c3c(C)cc(C)cc3C)no2)C=C[C@@H]1OC(C)=O ; its z-score = 0.105

# compound CCN1C(=O)[C@H]2[C@H]3[C@H](O)[C@H](O)CC(=NNC(=O)OCc4ccccc4)[C@@H]3CC[C@H]2C1=O ; its z-score = 0.0507

# compound COC(=O)CC=C[C@@H](C)[C@@H](C=NOC[C@@H](O)COCc1ccco1)NS(=O)(=O)c1ccc(C)cc1 ; its z-score = 0.124

# compound CO[C@@H](C1CCCCC1)[C@@H](C)[C@H](OCc1cccc(Br)c1)[C@@H](C)CO ; its z-score = -0.776

# compound C#CCCCON=C1C[C@@H](O)[C@@H](O)[C@@H]2[C@@H]3C(=O)N(C[C@@H]4CCCO4)C(=O)[C@@H]3CC[C@@H]12 ; its z-score = 0.802
